species on record: Homo sapiens; experiment: Liver toxicity in human assessed as induction of drug-induced liver injury by measuring severity class index
Reported DILI_severity_class by item:

Examples with their reported DILI_severity_class follow.
compound	endpoint name	test result
CC(CN1c2ccccc2Sc2ccccc21)N(C)C (centres undefined)	DILI_severity_class	5
C[C@@H]1O[C@@H]1P(=O)(O)O	DILI_severity_class	6
CN1CCN2c3ncccc3Cc3ccccc3C2C1 (centres undefined)	DILI_severity_class	3
CC[C@H](C)[C@@H]1NC(=O)[C@H](Cc2ccc(O)cc2)NC(=O)[C@@H](N)CSSC[C@@H](C(=O)N2CCC[C@H]2C(=O)N[C@@H](CC(C)C)C(=O)NCC(N)=O)NC(=O)[C@H](CC(N)=O)NC(=O)[C@H](CCC(N)=O)NC1=O	DILI_severity_class	0
CS(=O)(=O)OCCCCOS(C)(=O)=O	DILI_severity_class	8

Would you mind telling me what DILI_severity_class value was observed for "C[n+]1ccccc1/C=N/O" ? 3

Same read-out for "CN(C)C(=N)N=C(N)N" ? 0

Try this compound next: "C[C@@H]1[C@H](O)[C@@H](C)/C=C/C=C/C=C/C=C/C=C/C=C/C=C/[C@H](O[C@@H]2O[C@H](C)[C@@H](O)[C@H](N)[C@@H]2O)C[C@@H]2O[C@](O)(C[C@@H](O)C[C@@H](O)[C@H](O)CC[C@@H](O)C[C@@H](O)CC(=O)O[C@H]1C)C[C@H](O)[C@H]2C(=O)O" 3

Entry to check: Cl.Cl.O=C(O)COCCN1CCN([C@H](c2ccccc2)c2ccc(Cl)cc2)CC1 [LEVOCETIRIZINE DIHYDROCHLORIDE] 4

* * *

organism: Homo sapiens; test: Liver toxicity in human assessed as induction of drug-induced liver injury by measuring severity class index
The reader will find reported DILI_severity_class values listed item by item below.
API doc: respond with a numeric literal and nothing else, no unit.

See these solved cases before continuing.
molecule	DILI_severity_class
O=C(O)c1ccccc1-c1c2ccc(=O)cc-2oc2cc(O)ccc12	0
CC(=O)Oc1ccccc1C(=O)Nc1ncc([N+](=O)[O-])s1 [NITAZOXANIDE]	0
Nc1cc(N2CCCCC2)nc(N)[n+]1[O-]	0
CC1=C(/C=C/C(C)=C/C=C/C(C)=C/C(=O)O)C(C)(C)CCC1	3

Look up DILI_severity_class: COc1c(C)c2c(c(O)c1C/C=C(\C)CCC(=O)OCCN1CCOCC1)C(=O)OC2 [MYCOPHENOLATE MOFETIL] 3

Would you kindly repeat that for "NC(=O)C(c1ccccc1)(c1ccccc1)[C@@H]1CCN(CCc2ccc3c(c2)CCO3)C1" ? 0

Proceed to CC(COc1ccccc1)N(CCCl)Cc1ccccc1 (stereo not drawn) 0

* * *

species: Homo sapiens; assay: Liver toxicity in human assessed as induction of drug-induced liver injury by measuring verified drug-induced liver injury concern status
endpoint name: DILI_Concern

Below: 6 molecules and their reported DILI_Concern.
molecule	test result
N=C(N)N [GUANIDINE]	Ambiguous-Dili-Concern
Cc1onc(-c2ccccc2)c1C(=O)N[C@@H]1C(=O)N2[C@@H]1SC(C)(C)[C@@H]2C(=O)O [OXACILLIN]	Less-Dili-Concern
CCCCCC(=O)O[C@]1(C(C)=O)CC[C@H]2[C@@H]3CCC4=CC(=O)CC[C@]4(C)[C@H]3CC[C@@]21C [HYDROXYPROGESTERONE CAPROATE]	Ambiguous-Dili-Concern
C[C@@H](Cc1ccccc1)NC(=O)[C@@H](N)CCCCN [LISDEXAMFETAMINE]	Ambiguous-Dili-Concern
Nc1nc(O)c2ncn(COC(CO)CO)c2n1 [GANCICLOVIR]	Ambiguous-Dili-Concern
Nc1ncn([C@@H]2O[C@H](CO)[C@@H](O)[C@H]2O)c(=O)n1 [AZACITIDINE]	Ambiguous-Dili-Concern

Give the measured DILI_Concern of Oc1ccc2c(c1)[C@@]13CCCC[C@@]1(O)[C@@H](C2)N(CC1CCC1)CC3 [BUTORPHANOL] . No-Dili-Concern

Please do the same for "CCC[C@@]1(CCc2ccccc2)CC(O)=C([C@H](CC)c2cccc(NS(=O)(=O)c3ccc(C(F)(F)F)cn3)c2)C(=O)O1" as well. Most-Dili-Concern

Note, next up: CNC[C@H](O)c1ccc(O)c(O)c1 [EPINEPHRINE] No-Dili-Concern

What do we get for C/C(=C\c1csc(C)n1)[C@@H]1C[C@@H]2O[C@]2(C)CCC[C@H](C)[C@H](O)[C@@H](C)C(=O)C(C)(C)[C@@H](O)CC(=O)N1 [IXABEPILONE] ? Ambiguous-Dili-Concern

Next: Cc1[nH]c(=O)c(C#N)cc1-c1ccncc1 [MILRINONE] Ambiguous-Dili-Concern

Same for Cc1cccc(Nc2ccncc2S(=O)(=O)NC(=O)NC(C)C)c1 [TORSEMIDE] Ambiguous-Dili-Concern

Then what about the molecule COc1cc(NCc2ccc3nc(N)nc(N)c3c2C)cc(OC)c1OC [TRIMETREXATE] ? Ambiguous-Dili-Concern

* * *

species: Homo sapiens; test: Liver toxicity in human assessed as induction of drug-induced liver injury by measuring verified drug-induced liver injury concern status
endpoint name: DILI_Concern

Field: example entries. Status: answers known.
> print(dat)
                                   compound             test.result
1  COc1ccc2c3c1O[C@H]1[C@@H](O)C=C[C@H]4[C@@H](C2)N(C)CC[C@@]341 [CODEINE]         No-Dili-Concern
2  CN1CCN(CCCN2c3ccccc3Sc3ccc(Cl)cc32)CC1 [PROCHLORPERAZINE]       Less-Dili-Concern
3  Cc1ncc([N+](=O)[O-])n1CCO [METRONIDAZOLE]       Less-Dili-Concern
4  CN(C)CCc1c[nH]c2ccc(C[C@H]3COC(=O)N3)cc12 [ZOLMITRIPTAN]  Ambiguous-Dili-Concern
5  CCOC(=O)[C@H](CCc1ccccc1)N[C@@H](C)C(=O)N1[C@H](C(=O)O)C[C@H]2CCCC[C@@H]21 [TRANDOLAPRIL]       Less-Dili-Concern
6  COc1cc(C(=O)NCc2ccc(OCCN(C)C)cc2)cc(OC)c1OC [TRIMETHOBENZAMIDE]  Ambiguous-Dili-Concern

Requested read-out: DILI_Concern. Entry: Cc1cnc(NC(=O)C2=C(O)c3ccccc3S(=O)(=O)N2C)s1 [MELOXICAM] Less-Dili-Concern

Try this compound next: C=CCN1C[C@H](C(=O)N(CCCN(C)C)C(=O)NCC)C[C@@H]2c3cccc4[nH]cc(c34)C[C@H]21 [CABERGOLINE] No-Dili-Concern

* * *

species: Homo sapiens; experiment: Liver toxicity in human assessed as induction of drug-induced liver injury by measuring severity class index
endpoint name: DILI_severity_class

compound	DILI_severity_class
Cc1cn([C@H]2C=C[C@@H](CO)O2)c(=O)[nH]c1=O	8

Value lookup for DILI_severity_class; key = "Cc1nnc(C(=O)NC(C)(C)c2nc(C(=O)NCc3ccc(F)cc3)c(O)c(=O)n2C)o1" 7

# repeat for COc1cc2nc(N3CCN(C(=O)C4CCCO4)CC3)nc(N)c2cc1OC (stereo not drawn) 0

* * *

species on record: Homo sapiens; test: Liver toxicity in human assessed as induction of drug-induced liver injury by measuring severity class index
Recorded DILI_severity_class for the following molecules
Give a plain numeric answer without units written out.

Could you share which DILI_severity_class value was measured for "C[C@@H](O)[C@H]1C(=O)N2C(C(=O)O)=C(S[C@@H]3CN[C@H](C(=O)N(C)C)C3)[C@H](C)[C@H]12" ? 3

Again, but for "Cc1nc(-c2ccc(OCC(C)C)c(C#N)c2)sc1C(=O)O" 8

Try the molecule O=[As][As+](=O)[O-] (configuration not stated) [ARSENIC TRIOXIDE] 3

Also, CC1=C(CCC(=O)O)c2cc3[nH]c(cc4[nH]c(cc5nc(cc1n2)C(C)=C5C(C)OC(C)c1c(C)c2cc5nc(cc6nc(cc7[nH]c(cc1[nH]2)c(C)c7CCC(=O)O)C(CCC(=O)O)=C6C)C(C(C)O)=C5C)c(C)c4C(C)O)c(C)c3CCC(=O)O (configuration not stated) please. 0

Consider next the molecule "C=C[C@H]1C[N@@]2CC[C@H]1C[C@H]2[C@H](O)c1ccnc2ccc(OC)cc12" in the same way. 3

Now the same for "CC(C)(C)NC(=O)[C@@H]1C[C@@H]2CCCC[C@@H]2CN1C[C@@H](O)[C@H](Cc1ccccc1)NC(=O)[C@H](CC(N)=O)NC(=O)c1ccc2ccccc2n1" 3

Also "CN(C)CCc1c[nH]c2ccc(CS(=O)(=O)N3CCCC3)cc12" ? 0

What do you get for O=C(Oc1ccccc1C(=O)O)c1ccccc1O [SALSALATE] ? 3

Here is the next molecule: "CCc1oc2ccccc2c1C(=O)c1cc(Br)c(O)c(Br)c1" 8

Subsequent entry: "CCCc1cc(=O)[nH]c(=S)[nH]1" 8

Hey, just so you know, these numbers are from ChEMBL document CHEMBL4028802.
